Each item that follows carries a reported % inhibition of binding.
Measurement target: tetanus neurotoxin (TeNT), authentic tetanus holotoxin (Clostridium tetani, UniProt P04958 2-1315)
Sequence (P04958 2-457 limits assumed, chain 1 of 2): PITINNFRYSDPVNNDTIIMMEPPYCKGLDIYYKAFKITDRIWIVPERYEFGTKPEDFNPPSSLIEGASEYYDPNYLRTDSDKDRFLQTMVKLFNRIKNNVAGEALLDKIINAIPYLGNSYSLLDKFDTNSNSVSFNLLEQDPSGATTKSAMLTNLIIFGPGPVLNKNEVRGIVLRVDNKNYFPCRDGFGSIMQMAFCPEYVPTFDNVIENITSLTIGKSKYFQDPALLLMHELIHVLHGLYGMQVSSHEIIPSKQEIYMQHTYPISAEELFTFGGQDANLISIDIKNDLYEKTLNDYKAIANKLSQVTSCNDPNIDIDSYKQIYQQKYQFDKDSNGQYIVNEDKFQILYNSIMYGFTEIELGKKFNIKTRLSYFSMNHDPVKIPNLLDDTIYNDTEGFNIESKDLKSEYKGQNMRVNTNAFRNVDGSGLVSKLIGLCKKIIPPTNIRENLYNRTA
Sequence (P04958 458-1315 limits assumed, chain 2 of 2): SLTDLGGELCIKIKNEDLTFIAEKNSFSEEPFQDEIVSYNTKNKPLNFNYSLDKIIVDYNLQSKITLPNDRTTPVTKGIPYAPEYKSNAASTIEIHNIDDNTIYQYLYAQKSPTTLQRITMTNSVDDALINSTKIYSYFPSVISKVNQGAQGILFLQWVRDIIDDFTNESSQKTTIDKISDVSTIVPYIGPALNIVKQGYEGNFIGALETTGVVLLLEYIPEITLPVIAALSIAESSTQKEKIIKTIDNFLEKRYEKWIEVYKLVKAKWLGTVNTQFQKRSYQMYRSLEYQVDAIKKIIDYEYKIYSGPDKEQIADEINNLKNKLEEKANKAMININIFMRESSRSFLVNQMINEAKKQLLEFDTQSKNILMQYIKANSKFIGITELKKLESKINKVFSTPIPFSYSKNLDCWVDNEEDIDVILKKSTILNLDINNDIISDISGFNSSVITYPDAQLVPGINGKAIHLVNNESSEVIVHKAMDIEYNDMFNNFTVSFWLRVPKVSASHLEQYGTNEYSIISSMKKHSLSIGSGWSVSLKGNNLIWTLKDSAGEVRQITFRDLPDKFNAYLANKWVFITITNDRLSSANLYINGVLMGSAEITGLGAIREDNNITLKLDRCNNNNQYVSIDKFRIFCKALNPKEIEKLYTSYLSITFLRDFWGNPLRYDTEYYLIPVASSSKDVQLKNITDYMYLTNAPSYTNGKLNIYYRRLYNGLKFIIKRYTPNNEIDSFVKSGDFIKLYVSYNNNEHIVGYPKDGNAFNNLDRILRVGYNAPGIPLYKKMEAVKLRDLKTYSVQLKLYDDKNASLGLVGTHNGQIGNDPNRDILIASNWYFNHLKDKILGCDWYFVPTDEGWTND
Measurement protocol: competition ELISA on TeNT, binder biotinylated; competitor SVT13L; note: test concentration or dose not given here
# number only, unit % dropped from output

Known % inhibition of binding results, listed for orientation:
SVT08L (VHH) VHH: QVQLQESGGGSVQAGGSLRLSCTASEFSYNDYTIAWFRRAAGKGRVEDGEGVASITTSYDRAYDNRIHYGDSVKGRFTISRDNAKNTVYLQMTNLNPSDTAVYYCGLDITPPGGIGASLTEGFLFDYWGQGTQVTVSS    5
SVT34L (VHH) VHH: QVQLQESGGGLVQPGGSLRLSCAASGRTISSYAMGWFRQAPGKQREFVAAISRSGGNTYYTDSVKGRFIISRDNAKNTLYLQMNNLKPEETAVYYCAADPNLMYESKWKYRALEAWGQGTLVTVSS    93

Now let's try a different one.
Q. Dear colleague, I am looking for the recorded % inhibition of binding of the following binder: SVT13L (VHH) VHH: QVQLQESGGGLVQAGGSLRLSCAVSGTNFDDYAIGWFRQAPGKRREAVACISKTDGVTRYGNGVKGRFTISSDEARNTVFLQMNDLKDEDTAIYYCIGDFKSCGMGYKPIDHWGRGIQVTVSS
A. 95
